Cited source: paper PMC8379015

# reported pIC50; entries follow
# testSystem: TrpAB β reaction (Mycobacterium tuberculosis, UniProt P9WFX9+P9WFY1)
# Construct: His6 (N)
# Sequence (P9WFX9 whole entry): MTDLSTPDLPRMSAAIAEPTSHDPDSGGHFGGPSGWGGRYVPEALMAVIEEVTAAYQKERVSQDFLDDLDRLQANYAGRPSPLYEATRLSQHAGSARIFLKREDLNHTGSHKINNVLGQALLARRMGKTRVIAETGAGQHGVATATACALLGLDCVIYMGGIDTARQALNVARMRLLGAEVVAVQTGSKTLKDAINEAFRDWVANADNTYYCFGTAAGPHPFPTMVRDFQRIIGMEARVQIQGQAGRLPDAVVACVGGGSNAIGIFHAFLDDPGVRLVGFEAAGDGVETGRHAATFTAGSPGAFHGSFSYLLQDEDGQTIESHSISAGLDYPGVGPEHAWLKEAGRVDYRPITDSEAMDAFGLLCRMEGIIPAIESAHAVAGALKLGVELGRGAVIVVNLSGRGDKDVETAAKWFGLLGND
# Sequence (P9WFY1 whole entry): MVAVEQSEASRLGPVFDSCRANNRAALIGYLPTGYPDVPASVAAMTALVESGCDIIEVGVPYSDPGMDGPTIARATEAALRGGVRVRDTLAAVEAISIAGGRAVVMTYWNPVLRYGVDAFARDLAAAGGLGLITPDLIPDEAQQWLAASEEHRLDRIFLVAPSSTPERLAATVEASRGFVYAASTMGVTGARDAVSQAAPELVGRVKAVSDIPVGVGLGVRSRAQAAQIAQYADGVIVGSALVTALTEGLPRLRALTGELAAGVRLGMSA
# assayProtocol: biochemical
pIC50: −log10 of the molar value.

| molecule | pIC50 |
| --- | --- |
| Nc1cccc2[nH]ccc12 [4-AI, 4-aminoindole, reference compound] | 3.19 |
| CNS(=O)(=O)c1ccc2c(c1)CCN2C(=O)c1ccc(C)s1 [C5, reference compound] | 6.43 |

----------
# reported MIC; entries follow
# System: M. tuberculosis H37Rv
# assayProtocol: microbe, parasite or virus in culture
# Type: cell-based
# conditionLabel: Mycobacterium tuberculosis, read-out: MIC
measuredQuantity: MIC (µM)

| compound | measuredQuantity | recordedResult |
| --- | --- | --- |
| Cc1ccc(C(=O)Nc2cccc3[nH]ccc23)o1 [C21] | MIC | 6.25 |
| CN(C(=O)c1ccc(OCC(F)(F)F)nc1)c1cccc2[nH]ccc12 [C13] | MIC | 25 |
| NNC(=O)c1ccncc1 [INH, isoniazid, reference compound] | MIC | 0.16 |
| O=C(COCC1CC1)Nc1cccc2[nH]ccc12 [C18] | MIC | 3.13 |
| O=C(Nc1cccc2[nH]ccc12)c1ccc(OCC(F)(F)F)nn1 [C16] | MIC | 2.3 |
| CNS(=O)(=O)c1ccc2c(c1)CCN2C(=O)c1ccc(C)s1 [C5, reference compound] | MIC | 0.39 |
| CN(CC(F)(F)F)c1ccc(C(=O)Nc2cccc3[nH]ccc23)cn1 [C20] | MIC | 4.7 |
| O=C(Nc1cccc2[nH]cnc12)c1ccc(OCC(F)(F)F)cn1 [C14] | MIC | 50 |
| O=C(Nc1cccc2[nH]ccc12)C1CCCCC1 [C3, N-(1H-indol-4-yl)cyclohexanecarboxamide] | MIC | 12.5 |
| O=C(Nc1ccnc2[nH]ccc12)c1ccc(OCC(F)(F)F)cn1 [C15] | MIC | 50 |
| O=C(Nc1cccc2[nH]ccc12)[C@H]1C[C@@H](Oc2ccccc2)C1 [C19] | MIC | 3.13 |
| Cc1ccc(OCC(=O)Nc2cccc3[nH]ccc23)cc1 [C17] | MIC | 1.56 |
